Tested on: MDR1
assayRemarks: in vitro
conditionDescription: dog, MDCK-MDR1, pH 7.4, MDCK-MDR1: Papp B-A (10^−6, cm/s)
Record form. Attribute: Papp B→A at 120 min, 5 μM. Fill in for each entry.
One number for each entry, in ×10⁻⁶ cm/s.

C[C@]12CC[C@](C)(N1)[C@H](F)[C@H](Oc1cnc(-c3ccc(-c4cn[nH]c4)cc3O)cn1)C2 : 34.7
CN(c1cnc(-c2cc3oc(C(=O)N4CCC4)cc3cc2O)cn1)[C@H]1C[C@@H]2CCC(N2)[C@H]1F (single isomer, unassigned) : 41.9
Cn1cnc(-c2cc(O)c(-c3cnc(N(C4CC4)[C@H]4C[C@@H]5CCC(N5)[C@H]4F)cn3)cc2F)cc1=O (single isomer, unassigned) : 49.3

Please give Papp B→A at 120 min, 5 μM for each item listed below.
1. CN(c1cnc(-c2cc(F)c(-c3cn[nH]c3)cc2O)cn1)[C@@H]1CC2CC(F)(F)[C@@H](C1)N2 (single isomer, unassigned)
2. CN(c1cnc(-c2ccc(-c3cn[nH]c3)cc2O)cn1)[C@@H]1CC2CC[C@H](N2)[C@H]1F (single isomer, unassigned)
3. Oc1cc(-c2cn[nH]c2)c(F)cc1-c1cnc(N(C2CC2)[C@@H]2CC3CC[C@H](N3)[C@@H]2F)cn1 (single isomer, unassigned)
4. CN(c1cnc(-c2ccc(-c3cnn(C)c3)cc2O)cn1)[C@@H]1CC2CC[C@H](N2)[C@@H]1F (single isomer, unassigned)

Reply:
1: 54.5; 2: 28.7; 3: 39.2; 4: 20.6

----------
System: MDR1 (P-gp)
assayRemarks: MDCK-MDR1 permeability assay, blood-brain-barrier penetration potential
conditionDescription: dog, MDCK-MDR1, pH 7.4, MDCK-MDR1 Efflux Ratio
readout: efflux ratio at 120 min, 5 μM

Consider the following illustrative entries.
COc1cc(-c2ccc(-c3cnc(N(C)[C@@H]4CC5COC[C@H](N5)[C@@H]4F)cn3)c(O)c2)ccn1 (single isomer, unassigned) : 1
CN(c1cnc(-c2ccc(-c3cnn(C)c3)cc2O)cn1)[C@@H]1[C@H](F)[C@H]2CCC(N2)[C@@H]1F (single isomer, unassigned) : 6
COc1cc(-c2cc(O)c(-c3cnc(N(C)[C@@H]4CC5CC[C@H](N5)[C@@H]4F)cn3)cc2F)cc(F)n1 (single isomer, unassigned) : 2
CN(c1cnc(-c2cc(F)c(-c3ccn(C)c(=O)c3)cc2O)cn1)[C@H]1C[C@@H]2CCCC(N2)[C@H]1F (single isomer, unassigned) : 27
CNC(=O)/C=C/c1cc(O)c(-c2cnc(N(C)[C@H]3C[C@@H]4CCC(N4)[C@H]3F)cn2)cc1F (single isomer, unassigned) : 24
Oc1cc(-c2cn[nH]c2)ccc1-c1cnc(O[C@H]2CC3CC[C@@H](N3)[C@H]2F)cn1 (single isomer, unassigned) : 4
CN(c1cnc(-c2cc(F)c(-c3cn[nH]c3)cc2O)cn1)[C@H]1C[C@@H]2CCC(N2)[C@H]1F (single isomer, unassigned) : 5
COc1cc(-c2ccc(-c3cnc(N(C)[C@H]4C[C@]5(C)CC[C@@](C)(N5)[C@H]4F)cn3)c(O)c2)cnn1 : 5
COc1cc(-c2ccc(-c3cnc(N(C)[C@H]4C[C@@H]5CCC(N5)[C@H]4F)cn3)c(O)c2)ncn1 (single isomer, unassigned) : 3
Oc1cc(-c2cn[nH]c2)ccc1-c1cnc(O[C@@H]2C[C@H]3CCC(N3)[C@@H]2F)cn1 (single isomer, unassigned) : 5

Please give efflux ratio at 120 min, 5 μM for each item listed below.
1. Cc1cc(-c2ccc(-c3cnc(N(C)[C@H]4C[C@@H]5CCC(N5)[C@H]4F)cn3)c(O)c2)cc(=O)[nH]1 (single isomer, unassigned)
2. CN(c1cnc(-c2ccc(-c3cnn(C)c3)cc2O)cn1)[C@@H]1C[C@H]2CCC[C@H](N2)[C@@H]1F

Reply:
1: 47; 2: 6
